- test-method-notes: Solubility of busulfan in various solvents
- Assay type: physicochemical
- condition-context: water
- From the text: The solvents chosen for the impregnation are those in which busulfan has appreciable solubility (acetone, acetonitrile, chloroform, dichloromethane, dimethyl carbonate) (Table 18).
metric: solubility (µg/mL)
Entry rule: numbers only, all in µg/mL.

*Q* # query: solubility of entry CS(=O)(=O)OCCCCOS(C)(=O)=O [busulfan, 1,4-butanediol dimethylsulfonate]
*A* 100

###

- test-method-notes: Solubility of busulfan in various solvents
- Type: physicochemical
- condition-context: dichloromethane, organic solvent or mixture
metric: solubility (µg/mL)
Entry rule: numbers only, all in µg/mL.

*Q* # query: solubility of entry CS(=O)(=O)OCCCCOS(C)(=O)=O [busulfan, 1,4-butanediol dimethylsulfonate]
*A* 10000

###

- test-method-notes: Solubility of busulfan in various solvents
- Type: physicochemical
- condition-context: ethyl acetate, organic solvent or mixture
metric: solubility (µg/mL)
Entry rule: numbers only, all in µg/mL.

*Q* # query: solubility of entry CS(=O)(=O)OCCCCOS(C)(=O)=O [busulfan, 1,4-butanediol dimethylsulfonate]
*A* 6600

###

- test-method-notes: Solubility of busulfan in various solvents
- Type: physicochemical
- condition-context: chloroform, organic solvent or mixture
metric: solubility (µg/mL)
Entry rule: numbers only, all in µg/mL.

*Q* # query: solubility of entry CS(=O)(=O)OCCCCOS(C)(=O)=O [busulfan, 1,4-butanediol dimethylsulfonate]
*A* 8000

###

- test-method-notes: Solubility of busulfan in various solvents
- Assay type: physicochemical
- condition-context: ethanol, organic solvent or mixture
- Excerpt: The solvents chosen for the impregnation are those in which busulfan has appreciable solubility (acetone, acetonitrile, chloroform, dichloromethane, dimethyl carbonate) (Table 18).
metric: solubility

*Q* # query: solubility of entry CS(=O)(=O)OCCCCOS(C)(=O)=O [busulfan, 1,4-butanediol dimethylsulfonate]
*A* < 4000 µg/mL

###

- test-method-notes: Solubility of busulfan in various solvents
- Type: physicochemical
- condition-context: toluene, organic solvent or mixture
metric: solubility

*Q* # query: solubility of entry CS(=O)(=O)OCCCCOS(C)(=O)=O [busulfan, 1,4-butanediol dimethylsulfonate]
*A* ~4000 µg/mL

###

- test-method-notes: Solubility of busulfan in various solvents
- Type: physicochemical
- condition-context: tetrahydrofuran, organic solvent or mixture
metric: solubility

*Q* # query: solubility of entry CS(=O)(=O)OCCCCOS(C)(=O)=O [busulfan, 1,4-butanediol dimethylsulfonate]
*A* ~5000 µg/mL

###

- test-method-notes: Solubility of busulfan in various solvents
- Assay type: physicochemical
- condition-context: acetone, organic solvent or mixture
metric: solubility (mg/mL)
Entry rule: numbers only, all in mg/mL.

*Q* # query: solubility of entry CS(=O)(=O)OCCCCOS(C)(=O)=O [busulfan, 1,4-butanediol dimethylsulfonate]
*A* 20

###

- test-method-notes: Solubility of busulfan in various solvents
- Type: physicochemical
- condition-context: ether, organic solvent or mixture
metric: solubility

*Q* # query: solubility of entry CS(=O)(=O)OCCCCOS(C)(=O)=O [busulfan, 1,4-butanediol dimethylsulfonate]
*A* < 4000 µg/mL

###

- test-method-notes: Solubility of busulfan in various solvents
- Type: physicochemical
- condition-context: acetonitrile, organic solvent or mixture
metric: solubility (mg/mL)
Entry rule: numbers only, all in mg/mL.

*Q* # query: solubility of entry CS(=O)(=O)OCCCCOS(C)(=O)=O [busulfan, 1,4-butanediol dimethylsulfonate]
*A* 30
